# target: GST/PTP-S31 fusion protein (S31D) (Homo sapiens, UniProt Q9UMZ3)
# Construct: p16 encodes a fusion protein of glutathione-S-transferase and PTP-S31D (starting with the first methionine); made in house; host or cells: E. coli DH5α and SURE
# Sequence (Q9UMZ3 with tags, fused parts or gaps): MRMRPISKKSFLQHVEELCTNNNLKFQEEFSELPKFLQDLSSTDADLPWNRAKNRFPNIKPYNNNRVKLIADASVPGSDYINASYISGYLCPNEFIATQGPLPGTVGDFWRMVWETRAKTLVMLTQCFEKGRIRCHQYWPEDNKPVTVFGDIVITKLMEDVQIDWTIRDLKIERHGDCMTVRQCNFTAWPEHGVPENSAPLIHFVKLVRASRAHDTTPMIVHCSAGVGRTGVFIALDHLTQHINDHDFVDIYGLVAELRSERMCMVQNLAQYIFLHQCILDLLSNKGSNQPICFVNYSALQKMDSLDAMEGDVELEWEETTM
# test-summary: PTP assay of GST/PTP-S31D fusion protein on glutathione-Sepharose beads, substrate pNP-P, effect of agents
# Assay type: biochemical
# experimental-setup: agent 1 mM final; 25 mM pNP-P, MES pH 5.5, 30 min room temperature
reported-metric: PTP Activity (% of control) S31D

Incoming: Quick one: PTP Activity (% of control) S31D for [Cl-].[Cl-].[Zn+2] ?
Outgoing: 13 % of control

Incoming: Quick one: PTP Activity (% of control) S31D for [O]=[V]([O-])([O-])[O-] [Orthovanadate, orthovanadate] ?
Outgoing: 23 % of control

Incoming: Quick one: PTP Activity (% of control) S31D for [Cl][Mn][Cl] ?
Outgoing: 110 % of control

Incoming: Quick one: PTP Activity (% of control) S31D for [Cl-].[Cl-].[Mg+2] ?
Outgoing: 123 % of control
